Tested on: IgG expressing CHO cell line (CHO-2: ATCC CRL 11397, producing IgG4)
protocolSummary: Growth and production curves of IgG expressing CHO cells in suspension culture in supplemented chemically defined medium
Type: cell-based, Chinese hamster
appliedConditions: added at 1 × 10^−3 % w/v in IS CHO-CD medium
Peptide text beside a SMILES is read from it.
testReadout: Specific IgG production after 11 days

{"columns": ["molecule", "systemName", "valueObserved"],
 "data": [
  ["N[C@@H](CCC(=O)N[C@@H](CS)C(=O)O)C(=O)O [γ-glutamyl cysteine]", "IgG expressing CHO cell line (CHO-2: ATCC CRL 11397, producing IgG4)", 68.33],
  ["NCC(=O)NCC(=O)O [Glycyl-glycine] (H-Gly-Gly-OH)", "IgG expressing CHO cell line (CHO-2: ATCC CRL 11397, producing IgG4)", 104.2],
  ["NCCC(=O)O [β-alanine]", "IgG expressing CHO cell line (CHO-2: ATCC CRL 11397, producing IgG4)", 97.1],
  ["N[C@@H](CCO)C(=O)O [L-homoserine]", "IgG expressing CHO cell line (CHO-2: ATCC CRL 11397, producing IgG4)", 96.8],
  ["CSCC[C@H](NC(C)=O)C(=O)O [N-acetyl methionine]", "IgG expressing CHO cell line (CHO-2: ATCC CRL 11397, producing IgG4)", 94.4]
]}
